- conditionDetails: 322.41 K; 101.33 kPa; Liquid; Pulse-echo method
measuredQuantity: speed of sound (m/s)

molecule: CCCC(=O)[O-].C[NH2+]CCO [N-methyl-2-hydroxyethylammonium butanoate]
measuredQuantity: speed of sound
outputUnit: m/s
resultNumber: 1538.6
//
molecule: C[NH2+]CCO.O=C[O-] [2-hydroxy-N-methylethanaminium formate]
measuredQuantity: speed of sound
outputUnit: m/s
resultNumber: 1768.1
//
molecule: CCCCC(=O)[O-].C[NH2+]CCO [2-hydroxy-N-methylethanaminium pentanoate]
measuredQuantity: speed of sound
outputUnit: m/s
resultNumber: 1473.8
//
molecule: CC(C)C(=O)[O-].C[NH2+]CCO [2-hydroxy-N-methylethanaminium isobutyrate]
measuredQuantity: speed of sound
outputUnit: m/s
resultNumber: 1542.7
//
molecule: CCC(=O)[O-].C[NH2+]CCO [2-hydroxy-N-methylethanaminium propionate]
measuredQuantity: speed of sound
outputUnit: m/s
resultNumber: 1618.2
